- protocol summary: Ratio of melting temperature to glass-transition temperature (Tm/Tg) of sugar alcohols
- Type: physicochemical
measured attribute: Tm/Tg (K/K)
Lab book: enter the figure in K/K, no units written.

1. OC[C@@H](O)[C@@H](O)[C@H](O)[C@H](O)CO [Mannitol]    1.87
2. OC[C@@H](O)[C@@H](O)CO [Erythritol]    1.71
3. OC[C@@H](O)[C@H](O)[C@@H](O)CO [Xylitol]    1.46
4. OC[C@@H](O)[C@@H](O[C@H]1O[C@H](CO)[C@@H](O)[C@H](O)[C@H]1O)[C@H](O)[C@@H](O)CO [Maltitol]    1.32

Please examine the following record next.
For OC[C@@H](O)[C@@H](O)[C@H](O)[C@@H](O)CO [Sorbitol] , write its Tm/Tg.
1.38
